Tested on: F1 hybrid maize plants
Assay: efficacy field trial for quizalofop-P tolerance and clethodim sensitivity
Type: in vivo
Settings: scale 0 to 100; 0.64 lb ai/acre at VE-V2, V4, V8; with CTP unless label says no CTP
parameter: average injury rating, V8 Growth Stage, 8x Quizalofop

{"columns": ["molecule", "reported-value"],
 "data": [
  ["MON-HT2: engineered oxygenase protein, amino acid sequence SEQ ID NO:18 (protein) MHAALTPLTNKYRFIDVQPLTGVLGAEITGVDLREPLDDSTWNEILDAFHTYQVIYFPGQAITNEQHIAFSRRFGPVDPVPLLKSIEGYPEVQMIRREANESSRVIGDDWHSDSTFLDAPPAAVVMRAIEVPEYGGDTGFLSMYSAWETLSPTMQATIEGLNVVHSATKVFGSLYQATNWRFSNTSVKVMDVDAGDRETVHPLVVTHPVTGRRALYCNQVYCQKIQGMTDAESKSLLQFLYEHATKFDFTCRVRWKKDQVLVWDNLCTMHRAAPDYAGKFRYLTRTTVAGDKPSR", 3.8]
]}
